Entries and their pKd
Target: T1, human VEGF (human, UniProt P15692 207-395, biotinylated (site not stated))
T1 construct: Biotinylated human VEGF generated internally; also called hVEGF; hVEGF-biotin
T1 sequence: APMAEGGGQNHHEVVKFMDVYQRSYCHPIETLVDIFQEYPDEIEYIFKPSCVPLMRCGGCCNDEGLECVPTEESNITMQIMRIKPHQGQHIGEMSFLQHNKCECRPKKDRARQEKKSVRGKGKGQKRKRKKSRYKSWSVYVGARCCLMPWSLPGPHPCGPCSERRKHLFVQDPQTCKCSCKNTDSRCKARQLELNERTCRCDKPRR
Test: Biacore SPR, hVEGF
pKd is a log-scale quantity: -log10 of the concentration expressed in molar.

Reference set, count: 4
>  <binder>
HC1.2T (Fab, V domains shown, Tagged heavy chain CDR variant HC1.2 with NVS4 light chain) VH: EVQLVESGGGLVQPGGSLRLSCTASGFSLTSYYYMTWVRQAPGKGLEWVGFIDPQNNPYYATWAKGRFTISRDNSKNTLYLQMNSLRAEDTAVYYCAGGDHNSGWGLDIWGQGTLVTVSS VL: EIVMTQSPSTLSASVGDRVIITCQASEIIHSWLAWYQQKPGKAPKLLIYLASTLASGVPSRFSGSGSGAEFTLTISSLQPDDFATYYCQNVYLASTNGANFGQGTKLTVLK

>  <quantitative.result>
10.38

$$$$
>  <binder>
NVS4 heavy chain variant D31S + Y32K (Fab, V domains shown, CDR variant of NVS4) VH: EVQLVESGGGLVQPGGSLRLSCTASGFSLTSKYYMTWVRQAPGKGLEWVGFIDPDDDPYYATWAKGRFTISRDNSKNTLYLQMNSLRAEDTAVYYCAGGDHNSGWGLDIWGQGTLVTVSS VL: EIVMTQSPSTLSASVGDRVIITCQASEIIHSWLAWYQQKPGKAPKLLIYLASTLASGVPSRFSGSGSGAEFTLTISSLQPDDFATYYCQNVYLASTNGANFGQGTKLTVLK

>  <quantitative.result>
9.73

$$$$
>  <binder>
HC1T (Fab, V domains shown, Tagged heavy chain CDR variant HC1 with NVS4 light chain) VH: EVQLVESGGGLVQPGGSLRLSCTASGFSLTSYYYMTWVRQAPGKGLEWVGFIDPQNNPYYATWAKGRFTISRDNSKNTLYLQMNSLRAEDTAVYYCAGGSHNSGWGLNIWGQGTLVTVSS VL: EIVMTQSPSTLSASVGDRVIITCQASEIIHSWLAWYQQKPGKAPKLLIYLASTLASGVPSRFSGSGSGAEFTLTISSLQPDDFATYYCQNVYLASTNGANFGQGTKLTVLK

>  <quantitative.result>
10.05

$$$$
>  <binder>
NVS4 heavy chain variant D55N (Fab, V domains shown, CDR variant of NVS4) VH: EVQLVESGGGLVQPGGSLRLSCTASGFSLTDYYYMTWVRQAPGKGLEWVGFIDPNDDPYYATWAKGRFTISRDNSKNTLYLQMNSLRAEDTAVYYCAGGDHNSGWGLDIWGQGTLVTVSS VL: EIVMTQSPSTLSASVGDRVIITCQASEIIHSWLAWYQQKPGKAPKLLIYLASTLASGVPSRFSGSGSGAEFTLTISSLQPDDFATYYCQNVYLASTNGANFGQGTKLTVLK

>  <quantitative.result>
9.99

$$$$

Summary for this binder, LC4T (Fab, V domains shown, Light chain CDR variant LC4 with tagged NVS4 heavy chain) VH: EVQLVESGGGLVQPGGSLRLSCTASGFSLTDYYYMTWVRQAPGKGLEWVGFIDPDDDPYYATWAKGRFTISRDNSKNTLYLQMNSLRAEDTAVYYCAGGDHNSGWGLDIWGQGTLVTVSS VL: EIVMTQSPSTLSASVGDRVIITCQASQKIHSWLAWYQQKPGKAPKLLIYQASTLAKGVPSRFSGSGSGAEFTLTISSLQPDDFATYYCQNVYLASTNGANFGQGTKLTVLK : pKd is 11.83

Summary for this binder, NVS4 heavy chain variant Y59F (Fab, V domains shown, CDR variant of NVS4) VH: EVQLVESGGGLVQPGGSLRLSCTASGFSLTDYYYMTWVRQAPGKGLEWVGFIDPDDDPFYATWAKGRFTISRDNSKNTLYLQMNSLRAEDTAVYYCAGGDHNSGWGLDIWGQGTLVTVSS VL: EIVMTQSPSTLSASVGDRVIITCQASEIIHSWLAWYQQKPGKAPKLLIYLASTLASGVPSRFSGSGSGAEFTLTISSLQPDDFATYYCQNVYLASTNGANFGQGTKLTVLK : pKd is 10.51

Summary for this binder, LC6T (Fab, V domains shown, Light chain CDR variant LC6 with tagged NVS4 heavy chain) VH: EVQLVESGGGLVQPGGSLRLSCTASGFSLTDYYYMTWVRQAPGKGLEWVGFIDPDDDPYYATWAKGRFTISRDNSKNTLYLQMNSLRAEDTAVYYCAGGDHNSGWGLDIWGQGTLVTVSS VL: EIVMTQSPSTLSASVGDRVIITCQASQIIHSWLAWYQQKPGKAPKLLIYQASTLAKGVPSRFSGSGSGAEFTLTISSLQPDDFATYYCQNVYLASRNGANFGQGTKLTVLK : pKd is 11.96

Summary for this binder, LC5T (Fab, V domains shown, Light chain CDR variant LC5 with tagged NVS4 heavy chain) VH: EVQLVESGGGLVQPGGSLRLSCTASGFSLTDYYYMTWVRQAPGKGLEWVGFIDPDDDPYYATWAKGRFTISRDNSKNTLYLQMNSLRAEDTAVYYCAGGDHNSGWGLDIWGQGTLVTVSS VL: EIVMTQSPSTLSASVGDRVIITCQASQIIKSWLAWYQQKPGKAPKLLIYQASTLAKGVPSRFSGSGSGAEFTLTISSLQPDDFATYYCQNVYLASTNGANFGQGTKLTVLK : pKd is 11.36

Summary for this binder, NVS4 light chain variant H30K (Fab, V domains shown, CDR variant of NVS4) VH: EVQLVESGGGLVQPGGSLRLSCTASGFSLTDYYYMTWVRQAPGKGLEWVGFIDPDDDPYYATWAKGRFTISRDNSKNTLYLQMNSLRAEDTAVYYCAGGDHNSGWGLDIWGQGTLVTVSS VL: EIVMTQSPSTLSASVGDRVIITCQASEIIKSWLAWYQQKPGKAPKLLIYLASTLASGVPSRFSGSGSGAEFTLTISSLQPDDFATYYCQNVYLASTNGANFGQGTKLTVLK : pKd is 10.45

Summary for this binder, NVS4 heavy chain variant Y34H (Fab, V domains shown, CDR variant of NVS4) VH: EVQLVESGGGLVQPGGSLRLSCTASGFSLTDYYHMTWVRQAPGKGLEWVGFIDPDDDPYYATWAKGRFTISRDNSKNTLYLQMNSLRAEDTAVYYCAGGDHNSGWGLDIWGQGTLVTVSS VL: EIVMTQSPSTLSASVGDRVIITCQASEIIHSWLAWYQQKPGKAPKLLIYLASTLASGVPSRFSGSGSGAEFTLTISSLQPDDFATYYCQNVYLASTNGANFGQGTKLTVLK : pKd is 9.82

Numbers sourced from patent US20170290876A1.
